Ref: patent US8486968B2

Exercise: for every item that follows, state its recorded pIC50.
Target: mPGES-1 (Homo sapiens, UniProt O14684)
Sequence (O14684 whole entry): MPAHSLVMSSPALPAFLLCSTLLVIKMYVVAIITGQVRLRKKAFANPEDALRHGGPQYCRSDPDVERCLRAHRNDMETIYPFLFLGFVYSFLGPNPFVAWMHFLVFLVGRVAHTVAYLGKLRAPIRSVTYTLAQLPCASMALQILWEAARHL
Experiment: mPGES-1 enzyme assay (HTRF detection of PGE2)
Format: biochemical
Parameters: made in house; host or cells: Rosetta E. coli (membrane/microsome fraction)
Conditions: recombinant human mPGES-1 microsomes, PGH2 2 μM, Table A; read-out: mPGES-1 inhibitory effect, IC50, enzyme assay
Answers are plain numbers, as −log10 of the molar value.

Known pIC50 results, listed for orientation:
compound	pIC50
Cn1c(Nc2c(Cl)ccc(CNC(=O)C(C)(C)C)c2Cl)nc2cc(C(=O)NC(c3ccccn3)C(F)(F)F)c(N3CCC(C(F)(F)F)CC3)nc21 (stereo not drawn)	8.70
Cn1c(Nc2c(Cl)ccc(CNC(=O)C(C)(C)C)c2Cl)nc2cc(C(=O)N[C@H]3CC[C@H](C(F)(F)F)CC3)c(N3CC[C@@H](F)C3)nc21	8.70

Now for another entry.
Given `CC(C)(C)C(=O)NCc1ccc(Cl)c(Nc2nc3cc(C(=O)N[C@H]4CC[C@H](C(F)(F)F)CC4)c(N4CC[C@H](F)C4)nc3[nH]2)c1Cl` , state its recorded pIC50.
8.70
